Test system: MDA-MB-231
test summary: Presto Blue cell viability assay, MDA-MB-231
Type: cell-based, human
recorded conditions: read-out: IC50 MDA-MB-231 (breast), 72 hours incubation
reported metric: pIC50
Bear in mind: pIC50 is minus log10 of a mol/L concentration; give just that figure.

Consider the worked cases shown below.
molecule="N.N.[Cl][Pt][Cl] [cisplatin]" data_value=5.13
molecule="N.N.[Cl-].[Cl-].[OH-].[OH-].[Pt+4] [oxo-cisplatin, [Pt(NH3)2Cl2(OH)2]]" data_value=4.28

For the next question, use this molecule.
Prompt: Query (molecule): `O=C1[O][Pt]2([NH][C@@H]3CCCC[C@H]3[NH]2)[O]C1=O` ; field requested: pIC50
Completion: 4.99
